Biological target: c-Kit (Homo sapiens, UniProt P10721)
Sequence (P10721 26-976): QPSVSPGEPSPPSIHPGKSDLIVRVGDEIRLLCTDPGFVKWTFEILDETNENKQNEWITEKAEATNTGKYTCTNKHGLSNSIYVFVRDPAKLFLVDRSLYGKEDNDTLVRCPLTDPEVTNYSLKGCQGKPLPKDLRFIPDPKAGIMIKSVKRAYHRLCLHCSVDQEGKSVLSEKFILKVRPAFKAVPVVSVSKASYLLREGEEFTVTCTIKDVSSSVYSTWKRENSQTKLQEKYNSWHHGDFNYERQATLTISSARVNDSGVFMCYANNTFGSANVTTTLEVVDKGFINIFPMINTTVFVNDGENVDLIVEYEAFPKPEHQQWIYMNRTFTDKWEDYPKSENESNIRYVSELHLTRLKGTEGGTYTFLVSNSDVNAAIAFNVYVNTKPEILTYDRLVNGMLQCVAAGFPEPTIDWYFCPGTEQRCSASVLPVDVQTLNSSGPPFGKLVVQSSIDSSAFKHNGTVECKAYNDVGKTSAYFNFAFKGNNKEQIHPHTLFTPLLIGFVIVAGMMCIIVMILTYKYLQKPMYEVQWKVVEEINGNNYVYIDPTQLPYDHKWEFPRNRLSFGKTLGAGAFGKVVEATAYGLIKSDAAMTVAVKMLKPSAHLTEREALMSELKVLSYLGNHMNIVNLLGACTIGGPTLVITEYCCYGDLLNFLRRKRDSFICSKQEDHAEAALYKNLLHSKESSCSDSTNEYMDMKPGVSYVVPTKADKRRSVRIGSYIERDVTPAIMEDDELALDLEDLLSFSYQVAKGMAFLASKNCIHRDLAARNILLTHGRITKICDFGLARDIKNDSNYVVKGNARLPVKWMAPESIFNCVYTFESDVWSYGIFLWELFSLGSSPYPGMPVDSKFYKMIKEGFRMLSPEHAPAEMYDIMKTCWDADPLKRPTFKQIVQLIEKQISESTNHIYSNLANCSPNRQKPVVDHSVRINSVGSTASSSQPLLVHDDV
Assay: c-Kit tyrosine kinase inhibition, Caliper screening (fluorescent substrate phosphorylation, electrophoretic separation)
Format: biochemical
Conditions: concentration 1.0E−09 (unit not given)
readout: c-Kit AVG % Activity at Specific Concentration

Query string: Requested read-out c-Kit AVG % Activity at Specific Concentration, target or system c-Kit (Homo sapiens, UniProt P10721), entry COCCOCCOCCOCCNC(=O)c1c(C)[nH]c(/C=C2\C(=O)Nc3ccc(F)cc32)c1C [mPEG4-semaxanib]
Result string: 99%

Query string: Requested read-out c-Kit AVG % Activity at Specific Concentration, target or system c-Kit (Homo sapiens, UniProt P10721), entry COCCOCCOCCOCCOCCNC(=O)c1c(C)[nH]c(/C=C2\C(=O)Nc3ccc(F)cc32)c1C [mPEG5-semaxanib]
Result string: 100%

Query string: Requested read-out c-Kit AVG % Activity at Specific Concentration, target or system c-Kit (Homo sapiens, UniProt P10721), entry COCCOCCOCCOCCOCCOCCOCCNC(=O)c1c(C)[nH]c(/C=C2\C(=O)Nc3ccc(F)cc32)c1C [mPEG7-semaxanib]
Result string: 97%

Query string: Requested read-out c-Kit AVG % Activity at Specific Concentration, target or system c-Kit (Homo sapiens, UniProt P10721), entry COCCOCCOCCOCCOCCOCCNC(=O)c1c(C)[nH]c(/C=C2\C(=O)Nc3ccc(F)cc32)c1C [mPEG6-semaxanib]
Result string: 97%

---

Please provide measured RET AVG % Activity at Specific Concentration for the entries that follow.
Molecular target: RET (Homo sapiens)
Sequence (P07949 29-1114, species assumed): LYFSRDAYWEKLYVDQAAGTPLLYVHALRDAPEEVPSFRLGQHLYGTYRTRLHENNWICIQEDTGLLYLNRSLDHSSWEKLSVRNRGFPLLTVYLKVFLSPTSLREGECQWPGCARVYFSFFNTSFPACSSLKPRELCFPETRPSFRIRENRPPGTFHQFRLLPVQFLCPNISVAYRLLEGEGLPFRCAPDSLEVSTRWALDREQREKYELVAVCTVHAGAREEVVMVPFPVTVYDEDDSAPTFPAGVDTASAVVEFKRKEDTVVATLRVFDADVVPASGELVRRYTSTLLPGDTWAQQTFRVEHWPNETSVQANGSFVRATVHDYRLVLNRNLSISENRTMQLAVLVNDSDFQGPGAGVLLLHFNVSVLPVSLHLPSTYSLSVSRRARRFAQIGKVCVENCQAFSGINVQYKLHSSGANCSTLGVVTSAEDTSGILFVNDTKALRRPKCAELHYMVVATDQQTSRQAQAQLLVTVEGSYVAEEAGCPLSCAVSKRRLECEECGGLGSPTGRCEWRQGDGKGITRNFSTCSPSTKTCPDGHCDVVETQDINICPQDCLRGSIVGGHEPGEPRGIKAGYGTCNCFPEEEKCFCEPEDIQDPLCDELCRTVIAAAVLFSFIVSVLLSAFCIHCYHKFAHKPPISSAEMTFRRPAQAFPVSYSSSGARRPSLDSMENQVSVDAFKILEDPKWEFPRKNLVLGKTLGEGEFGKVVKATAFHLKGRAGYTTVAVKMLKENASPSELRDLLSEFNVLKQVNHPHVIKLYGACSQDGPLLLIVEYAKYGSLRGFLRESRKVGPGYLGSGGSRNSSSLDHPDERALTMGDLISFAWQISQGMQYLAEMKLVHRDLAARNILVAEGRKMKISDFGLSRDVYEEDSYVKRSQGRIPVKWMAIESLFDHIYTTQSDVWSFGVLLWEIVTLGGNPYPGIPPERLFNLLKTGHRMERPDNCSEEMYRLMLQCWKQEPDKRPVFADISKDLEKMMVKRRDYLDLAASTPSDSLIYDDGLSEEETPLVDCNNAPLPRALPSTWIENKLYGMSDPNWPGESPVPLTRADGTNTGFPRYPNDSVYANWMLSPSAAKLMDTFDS
Test: RET kinase inhibition, Caliper screening (fluorescent substrate phosphorylation, electrophoretic separation)
Conditions: concentration 3.0E−08 (unit not given)
Just the number in %, nothing appended.

Query string: Can you share its RET AVG % Activity at Specific Concentration? I mean this compound: COCCOCCOCCOCCOCCOCCOCCNC(=O)c1c(C)[nH]c(/C=C2\C(=O)Nc3ccc(F)cc32)c1C [mPEG7-semaxanib]
Result string: 93

Query string: Can you share its RET AVG % Activity at Specific Concentration? I mean this compound: COCCOCCOCCOCCNC(=O)c1c(C)[nH]c(/C=C2\C(=O)Nc3ccc(F)cc32)c1C [mPEG4-semaxanib]
Result string: 95

Query string: Can you share its RET AVG % Activity at Specific Concentration? I mean this compound: COCCOCCOCCOCCOCCOCCOCCOCCOCCNC(=O)c1c(C)[nH]c(/C=C2\C(=O)Nc3ccc(F)cc32)c1C [mPEG9-semaxanib]
Result string: 96

Query string: Can you share its RET AVG % Activity at Specific Concentration? I mean this compound: COCCOCCOCCOCCOCCNC(=O)c1c(C)[nH]c(/C=C2\C(=O)Nc3ccc(F)cc32)c1C [mPEG5-semaxanib]
Result string: 95

Query string: Can you share its RET AVG % Activity at Specific Concentration? I mean this compound: COCCOCCOCCOCCOCCOCCOCCOCCNC(=O)c1c(C)[nH]c(/C=C2\C(=O)Nc3ccc(F)cc32)c1C [mPEG8-semaxanib]
Result string: 94

Query string: Can you share its RET AVG % Activity at Specific Concentration? I mean this compound: COCCOCCOCCNC(=O)c1c(C)[nH]c(/C=C2\C(=O)Nc3ccc(F)cc32)c1C [mPEG3-semaxanib]
Result string: 90
